As shown below, each of these compounds has a reported growth inhibition value.
assay: NCI Yeast Anticancer Drug Screen. Data for the mlh1 rad18 strain (AID 175); settings: S. cerevisiae mlh1 rad18 strain growth inhibition; at 50.0 µM; stronger effect = higher value
The panel holds about 79,000 compounds, 15% with a hit somewhere; the sample as a whole holds those more often.

compound	unit string	growth inhibition
CCOC(=O)/C=C\C(=O)OCC	%	-1.1
[O-][N+]1=CCCC1	%	-16.4
O=C(c1ccccc1)N1C(=S)N=C(Nc2ccccc2)C1=Nc1ccccc1	%	-35.9
NC(=O)c1csc(C2OC(CO)CC2O)n1 (stereo unspecified)	%	-2.1
NN1CCOC1=O	%	-1.7
O=C(O)c1ccc([N+](=O)[O-])cc1Cl	%	-7.55
CC(=O)Nc1ccc(Br)cc1C	%	30.6
O=COCc1ccc(Cl)cc1Cl	%	-11.7
CN(C)CCOC(=O)C(O)C1CCCCC1 (stereo unspecified)	%	-19.9
COc1ccc(NC(=O)Nc2cc(C(F)(F)F)ccc2Cl)cc1	%	-9.65
[Cu+2].[Cu+2].c1ccc2c(c1)-c1nc-2nc2[n-]c(nc3nc(nc4[n-]c(n1)c1ccccc41)-c1ccccc1-3)c1cc3c4nc5nc(nc6[n-]c(nc7nc(nc([n-]4)c3cc21)-c1ccccc1-7)c1ccccc61)-c1ccccc1-5	%	11.3
O=c1c2nn3c(=O)n(-c4ccccc4)c(=O)c3nn2c(=O)n1-c1ccccc1	%	-3.05
CCOC(=O)COc1ccc(C)c2c1C(=O)CC2	%	-9.9
Nc1[nH]c(=S)[nH]c(=O)c1NS(=O)(=O)c1ccccc1	%	18.4
Cc1cccc(C)c1Nc1nc(C)c(C(=O)CC(=O)C(=O)Nc2c(C(C)C)cccc2C(C)C)s1	%	19.6
CC1(c2ccc(C(O)c3ccccc3)s2)OCCO1 (stereo unspecified)	%	15.6

----------
experiment: NCI Yeast Anticancer Drug Screen. Data for the cln2 rad14 strain (AID 165);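 further: 0% = growth equal to vehicle treated cultures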; settings: S. cerevisiae cln2 rad14 strain, at 50.0 µM
This is part of a sample that, as a whole, favours compounds with a hit. Of some 79,000 tested, about 15% had one in any assay. Calls of active or inactive are those of the source. Rule as the data show it: active = growth inhibition above about 70%; inactive = the rest.
Possible outcomes: Yes = active, No = inactive

compound	assigned category
COc1ccc(/C=N/n2cnc3c(c2=O)SC(=C(C#N)C#N)N3c2ccccc2)cc1	No
O=C(CCc1cc(O)ccc1O)OCCc1ccccc1	Yes
CC(C)C(C(=O)O)N(CC1(O)OCC(O)C(O)C1O)N=O (stereo not given)	No
NC(CCNCCc1ccccc1)CNCCc1ccccc1 (stereo not given)	No
Cc1cc2oc(C)c(S(=O)(=O)NC(=O)Nc3ccc(Cl)cc3)c(=O)c2c(=O)o1	No
O=C(Nc1ccc2c(c1)Cc1cccc(F)c1-2)C(F)(F)F	No
Nn1cnc2nccnc2c1=O	No
Cc1cccc(Cl)c1OCC(=O)Nc1ccccc1	No
COc1ccc2ccccc2c1C=O	No
Cc1ccc(Nc2c3ccccc3nc3ccccc23)cc1C	Yes
COc1cccc([B-]23OCC[N+]2(CNC(=O)c2ccccc2O)CCO3)c1 (stereo not given)	No
O=[N+]([O-])c1ccsc1Cl	No
CCCn1c(SCC)c2ccccc2c1-c1nc(F)nc(F)n1	No
O=C1OCCN1N1C(=O)CC2(CCN(Cc3ccccc3)CC2)C1=O	No
N#CC(C(=O)O)C1(C(C#N)C(=O)O)CCN(Cc2ccccc2)CC1 (stereo not given)	No
O=C(O)C1(Nc2ccc(Cl)cc2)CCCC1	No
CCOC(=O)C1(c2ccccc2)CCNC(=O)CC1 (stereo not given)	No
COc1ccc(CC(=O)NC(N)=O)cc1	No
Cc1ccc(OC/C=C/CS(=O)(=O)c2ccc(C)cc2)cc1	No
CC/C=C/CC(=O)NCc1ccc(O)c(OC)c1	No
CN(C(=O)Cl)c1ccccc1	No
COc1ccc(N=C2c3cc([N+](=O)[O-])ccc3-c3c2cccc3[N+](=O)[O-])cc1	No
Cc1cc2[nH]c(=O)n(C3OC(CO)C(O)C3O)c2cc1C (stereo not given)	No
O=c1oc2ccccc2c2ccccc12	No
OCCNc1ncnc2ccccc12	No
CCCCCCCN=C(N)CSSCC(N)=NCCCCCCC	Yes
NCCCNC1CCCCC1	No
O=C1c2cccc3cccc(c23)C(=O)N1CCO	No
C=C(CCC(Cl)C(COS(=O)(=O)c1ccc(C)cc1)OC(CCCO[Si](c1ccccc1)(c1ccccc1)C(C)(C)C)OCC)[Si](C)(C)C (stereo not given)	No
COc1ccc([N+](=O)[O-])c2c1CONC2(C)C(=O)O (stereo not given)	No
C=C(C)[C@@H]1CC[C@@H](C)C[C@H]1O	No
Nc1ccc(N(S(=O)(=O)c2ccccc2)S(=O)(=O)c2ccccc2)nc1	No
O=C1c2ccccc2OCC1/C=N/O (stereo not given)	No
CCOc1ccc(NC(=O)CC2SC(=Nc3ccc(C)cc3C)NC2=O)cc1 (stereo not given)	No
CCOc1ccc2nc(C)ccc2c1	No
Fc1c(F)c(F)c(SN=S=Nc2ccccc2)c(F)c1F	No
CC(=N\N)/C(C)=N/N=C(C)/C(C)=N/N=C(C)/C(C)=N/N=C(C)/C(C)=N/N	No
CCOC(=O)N1CC2CCc3c(ccc4ccccc34)N2C1=O (stereo not given)	No
Clc1ccc(C2SCCS2)c(Cl)c1	No
CCN(CC)CCOC(=O)c1ccc(N=Nc2cc(C(=O)O)ccc2O)cc1	No

----------
test: NCI Yeast Anticancer Drug Screen. Data for the mec2-1 strain (AID 157); settings: S. cerevisiae mec2-1 strain, at 50.0 µM, stronger effect = higher value
This is part of a sample that, as a whole, favours compounds with a hit. Of some 79,000 tested, about 15% had one in any assay.

compound	growth inhibition, %
COc1ccc(Cc2cc(O)c(OC)cc2O)cc1	17.1
O=c1c2cc([N+](=O)[O-])ccc2[nH]n1Cc1ccccc1Cl	12.3
COc1cc(NCC2COc3c(ccc(OC)c3OC)C2=O)c([N+](=O)[O-])cc1OC (configuration not stated)	20.2
COCCOC(=O)c1ccc(C(N)=NC2CCCCC2)cc1	4.25
Nc1nc(Cl)cc(NCC(O)CO)n1 (configuration not stated)	2.35
COC(=O)C(CS)NC(=O)CNC(=O)CNC(=O)C(CCCCNC(=O)OCc1ccccc1)NC(=O)CNC(=O)C(CSC(c1ccccc1)(c1ccccc1)c1ccccc1)NC(=O)OCc1ccccc1 (configuration not stated)	2.75
C=CCSCC1Nc2cc(Cl)c(S(N)(=O)=O)cc2S(=O)(=O)N1C (configuration not stated)	12.8

----------
test: NCI Yeast Anticancer Drug Screen. Data for the cln2 rad14 strain (AID 165);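 further: 0% = growth equal to vehicle treated cultures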; conditions: S. cerevisiae cln2 rad14 strain, at 50.0 µM, stronger effect = higher value
The panel holds about 79,000 compounds, 15% with a hit somewhere; the sample as a whole holds those more often.

compound	growth inhibition [%]
CC(=O)C(N=Nc1ccc(S(=O)(=O)NC2NCCC(C)N2)cc1)C(=O)Nc1ccccc1C (stereo unspecified)	25.6
COC(=O)C1CCC(=O)C(Sc2ccccc2)C1 (stereo unspecified)	6
C=CCc1ccc(OC(=O)CC)c(OC)c1	-8.75
COc1ccc(NC(=O)CSc2cc(Cl)ccc2Cl)cc1	18.9
CC(=O)CC(=O)CCCCCCCCCCCC(=O)CC(C)=O	-0.1
CCCCCN(C(=O)c1ccccc1C(=O)N(CCCCC)c1ccccc1)c1ccccc1	30.6
CCCCCCC(=O)/C=C/c1ccccc1OC	-20.4
N#C/C(=C/NC(=S)N=Nc1c(O)[nH]c2ccccc12)C(N)=O	-6.6
O=C(O)c1c(O)cc(=O)oc1-c1ccccc1Cl	-13.6
O=C(NC12OC3CC(CC(C3)O1)O2)NC12OC3CC(CC(C3)O1)O2	-3.85
CCCCCCCCCCCCSC1=CC(=O)C(SCCCCCCCCCCCC)=CC1=O	-13.2

----------
Assay: NCI Yeast Anticancer Drug Screen. Data for the mlh1 rad18 strain (AID 175)
Details: S. cerevisiae mlh1 rad18 strain growth inhibition; at 50.0 µM; stronger effect = higher value
Protocol: Growth inhibition of yeast strains with defined genetic alterations is measured as a screen for potential anti-cancer activity. Selected strains with alterations in DNA damage repair or cell cycle control were exposed to compounds and growth inhibition was measured relative to vehicle treated controls. The strain used in this assay is mlh1 rad18
About 79,000 compounds went through this panel and 15% of them were active in at least one assay; those are over-represented in the sample as a whole.
As shown below, each of these molecules has a reported growth inhibition value.

molecule	growth inhibition / %
ClC(Cl)(Cl)c1ccc(C2OCCO2)cc1	-0.3
Cc1nn2c(c1C#N)NNc1c-2sc(=N)nnc1=O	15.6
COc1ccccc1C=NC12CC3CC(CC(C3)C1)C2	-16.6
COC1(OC)CC2OC1C1N=NN(C(=O)OC(C)(C)C)C21 (stereo not drawn)	31.4
O=c1cc(-c2ccccc2)oc2c1ccc1c(O)cccc12	8.95
CCOC(=O)N/C=C/C(C)=O	-14.5
COc1c2ccoc2c(S(=O)(=O)Nc2ccc(Cl)cc2)c2oc(C)cc(=O)c12	-24.8
Cc1ccc(-c2c3c(n(C4OC(CO)C(O)C(O)C4O)c(=S)c2C#N)CC(C)(C)CC3=O)cc1 (stereo not drawn)	11.8
OCC1CC=CCC1 (stereo not drawn)	11.6
COc1ccc2nccc(CO)c2c1	0.75
O=C(O)CCc1ccc2c(c1)CC1(Cc3ccccc3C1)C2	64
O=c1c2cccnc2[nH]c2ccc3scnc3c12	40.7
CCCCNS(=O)(=O)c1ccc(C)cc1	-21.3
O=c1oc2ccccc2cc1-n1nnc2cc([N+](=O)[O-])ccc21	26.8
O=C(O)C(O)c1ccc(Cl)c(Cl)c1 (stereo not drawn)	11.1
CC(=O)c1cc2c(cc1C)C(C)(C)CCC2C (stereo not drawn)	2.3
CCCCCCCCCCCCCCNCCCCCCCCCCCCCC	17.4
O/C=C(\Cl)CCl	16.2
